The origin of these recorded values is the RNAGym collection of RNA variant scans (doi:10.7554/elife.80360).

B1: Hairpin Ribozyme (parent)
chain: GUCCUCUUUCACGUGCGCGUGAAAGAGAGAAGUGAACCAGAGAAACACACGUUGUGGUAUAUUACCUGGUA

Variants of: B1
test protocol: self-cleavage, relative activity (ratio to wild type); higher = more cleavage; co-transcriptional

>  <chain>
GUCCUCUUUCACAUGCGCGUGAAAGAGAGACGUGAACCAGAGAAACACACGUUGUGGUAUAUUACCUGGUA

>  <self-cleavage>
0.11

$$$$
>  <chain>
GUCCUCUUUCACGUGCGCGUGAAAGAGAGAAGUAAACCAGAGAAAGACACGUUGUGGUAUAUUACCUGGUA

>  <self-cleavage>
0.159

$$$$
>  <chain>
GUCCUCUUUCACGCGCGCGUGAAAGACAGAAGUGAACCAGAGAAACACACGUUGUGGUAUAUUACCUGGUA

>  <self-cleavage>
0.078

$$$$
>  <chain>
GUCCGCUUUCACGUGCGCGUGAAAGAGAGAAGUGAACUAGAGAAACACACGUUGUGGUAUAUUACCUGGUA

>  <self-cleavage>
0.195

$$$$
